# reported pIC50; entries follow
target: 17-beta-hydroxysteroid dehydrogenase type 2 (Homo sapiens); test: Inhibition of human placental 17betaHSD2 by radiodetection assay
Sequence (P37059 whole entry): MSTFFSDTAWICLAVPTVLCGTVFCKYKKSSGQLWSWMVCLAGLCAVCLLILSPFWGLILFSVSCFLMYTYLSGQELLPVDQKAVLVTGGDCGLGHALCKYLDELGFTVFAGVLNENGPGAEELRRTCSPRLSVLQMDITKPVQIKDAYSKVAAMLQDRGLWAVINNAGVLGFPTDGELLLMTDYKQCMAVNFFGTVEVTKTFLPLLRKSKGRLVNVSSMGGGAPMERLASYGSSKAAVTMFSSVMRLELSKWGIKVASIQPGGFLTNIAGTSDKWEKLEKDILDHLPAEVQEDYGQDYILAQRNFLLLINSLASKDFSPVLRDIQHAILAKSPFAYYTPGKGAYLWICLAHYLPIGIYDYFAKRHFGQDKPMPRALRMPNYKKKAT
// pIC50: -log10(molar conc.)

Some compounds with recorded pIC50:
sampleSmiles: Oc1cc(-c2ccc(-c3ccc(O)c(F)c3)s2)ccc1F
targetOrSystem: 17-beta-hydroxysteroid dehydrogenase type 2 (Homo sapiens)
pIC50: 6.66

sampleSmiles: Oc1cccc(-c2cc(-c3cccc(O)c3)c(-c3cccc(O)c3)s2)c1
targetOrSystem: 17-beta-hydroxysteroid dehydrogenase type 2 (Homo sapiens)
pIC50: 6.73

sampleSmiles: Cc1cc(O)cc(-c2ccc(-c3ccc(O)cc3)s2)c1
targetOrSystem: 17-beta-hydroxysteroid dehydrogenase type 2 (Homo sapiens)
pIC50: 5.59

In: Suppose we examine the compound Oc1ccc(-c2ccc(-c3ccc(F)c(O)c3)s2)cc1 ; what pIC50 value has been reported?
Out: 6.74

In: Suppose we examine the compound CCOC(=O)/C=C/c1cc(-c2ccc(-c3cccc(O)c3)s2)ccc1O ; what pIC50 value has been reported?
Out: 6.30

In: Suppose we examine the compound Oc1cccc(-c2cc(-c3ccc(O)c(F)c3)cs2)c1 ; what pIC50 value has been reported?
Out: 6.29

In: Suppose we examine the compound Cc1cc(-c2cccc(O)c2)sc1-c1cccc(O)c1 ; what pIC50 value has been reported?
Out: 6.07

In: Suppose we examine the compound Oc1cccc(-c2ccc(-c3ccc(O)c(F)c3)cc2)c1 ; what pIC50 value has been reported?
Out: 6.06

In: Suppose we examine the compound Cc1ccc(S(=O)(=O)NCc2cccc(-c3ccc(-c4cccc(O)c4)s3)c2)cc1 ; what pIC50 value has been reported?
Out: 6.56
